# Tested on: Staphylococcus sp.
# Experimental protocol: In vitro antibacterial evaluation: minimum inhibitory concentration (MIC), broth dilution method
# Format: cell-based
# Study conditions: Staphylococcus aureus (GC 4541); broth dilution, 18 hours at 35° C.
Items are presented alongside their recorded MIC Staphylococcus aureus (GC 4541).
Measured quantity: MIC Staphylococcus aureus (GC 4541) (µg/mL)

compound="CC(=O)OCC1OC(OC2C(CO)OC(Oc3ccc(CC4NC(=O)C(C(C)c5ccccc5)NC(=O)CNC(=O)C(CO)NC(=O)C(C(O)C5CNC(=N)N5C5OC(CO)C(O)C(O)C5O)NC(=O)C(C(O)C5CNC(=N)N5)NC4=O)cc3)C(O)C2O)C(O)C(OC(=O)CCC(C)C)C1O (stereo not drawn) [Example 270b]" measured_quantity="MIC Staphylococcus aureus (GC 4541)" reading_qualifier== value_reported=8
compound="CC(C)CC(=O)OC1C(OC2C(CO)OC(Oc3ccc(CC4NC(=O)C(C(C)c5ccccc5)NC(=O)CNC(=O)C(CO)NC(=O)C(CC5CNC(=N)N5C5OC(CO)C(O)C(O)C5O)NC(=O)C(CC5CNC(=N)N5)NC4=O)cc3)C(O)C2O)OC(CO)C(O)C1O (stereo not drawn) [Example 277b]" measured_quantity="MIC Staphylococcus aureus (GC 4541)" reading_qualifier=> value_reported=64
compound="CCC(C)C(=O)OC1C(CO)OC(OC2C(CO)OC(Oc3ccc(CC4NC(=O)C(C(C)c5ccccc5)NC(=O)CNC(=O)C(CO)NC(=O)C(C(O)C5CNC(=N)N5C5OC(CO)C(O)C(O)C5O)NC(=O)C(C(O)C5CNC(=N)N5)NC4=O)cc3)C(O)C2O)C(O)C1O (stereo not drawn) [Example 278c]" measured_quantity="MIC Staphylococcus aureus (GC 4541)" reading_qualifier== value_reported=4
compound="CC(C)CC(=O)OC1C(O)C(CO)OC(OC2C(CO)OC(Oc3ccc(CC4NC(=O)C(C(C)c5cccc(F)c5)NC(=O)CNC(=O)C(CO)NC(=O)C(C(O)C5CNC(=N)N5C5OC(CO)C(O)C(O)C5O)NC(=O)C(C(O)C5CNC(=N)N5)NC4=O)cc3)C(O)C2O)C1O (stereo not drawn) [Example 264b]" measured_quantity="MIC Staphylococcus aureus (GC 4541)" reading_qualifier== value_reported=8
compound="CC(C)CC(=O)OC1C(O)C(CO)OC(OC2C(CO)OC(Oc3ccc(CC4NC(=O)C(C(C)c5cccs5)NC(=O)CNC(=O)C(CO)NC(=O)C(C(O)C5CNC(=N)N5C5OC(CO)C(O)C(O)C5O)NC(=O)C(C(O)C5CNC(=N)N5)NC4=O)cc3)C(O)C2O)C1O (stereo not drawn) [Example 265b]" measured_quantity="MIC Staphylococcus aureus (GC 4541)" reading_qualifier== value_reported=8
compound="CC(C)CC(=O)OC1C(OC2C(CO)OC(Oc3ccc(CC4NC(=O)C(C(C)c5cccs5)NC(=O)CNC(=O)C(CO)NC(=O)C(C(O)C5CNC(=N)N5C5OC(CO)C(O)C(O)C5O)NC(=O)C(C(O)C5CNC(=N)N5)NC4=O)cc3)C(O)C2O)OC(CO)C(O)C1O (stereo not drawn) [Example 265a]" measured_quantity="MIC Staphylococcus aureus (GC 4541)" reading_qualifier== value_reported=16

* * *

Items are presented alongside their recorded MIC Coagulase Negative Staphylococcus (GC 6257).
# Test system: Staphylococcus sp.
# Experimental protocol: In vitro antibacterial evaluation: minimum inhibitory concentration (MIC), broth dilution method
# Assay type: cell-based
# Study conditions: strain GC 6257; broth dilution, 18 hours at 35° C.
Measured quantity: MIC Coagulase Negative Staphylococcus (GC 6257) (µg/mL)

compound="CC(c1ccccc1)C1NC(=O)CNC(=O)C(CO)NC(=O)C(C(O)C2CNC(=N)N2C2OC(CO)C(O)C(O)C2O)NC(=O)C(C(O)C2CNC(=N)N2)NC(=O)C(Cc2ccc(OC3OC(CO)C(OC4OC5COC(C6CC=CCC6)OC5C(O)C4O)C(O)C3O)cc2)NC1=O (stereo not shown)" test_system="Staphylococcus sp." value_reported=0.5
compound="CC(c1ccccc1)C1NC(=O)CNC(=O)C(CO)NC(=O)C(C(O)C2CNC(=N)N2C2OC(CO)C(O)C(O)C2O)NC(=O)C(C(O)C2CNC(=N)N2)NC(=O)C(Cc2ccc(OC3OC(CO)C(OC4OC5COC(c6ccc(-c7ccsc7)cc6)OC5C(O)C4O)C(O)C3O)cc2)NC1=O (stereo not shown)" test_system="Staphylococcus sp." value_reported=1
compound="COc1ccc(CC2OCC3OC(OC4C(CO)OC(Oc5ccc(CC6NC(=O)C(C(C)c7ccccc7)NC(=O)CNC(=O)C(CO)NC(=O)C(C(O)C7CNC(=N)N7C7OC(CO)C(O)C(O)C7O)NC(=O)C(C(O)C7CNC(=N)N7)NC6=O)cc5)C(O)C4O)C(O)C(O)C3O2)cc1 (stereo not shown)" test_system="Staphylococcus sp." value_reported=1
compound="CCOc1cc(C2OCC3OC(OC4C(CO)OC(Oc5ccc(CC6NC(=O)C(C(C)c7ccccc7)NC(=O)CNC(=O)C(CO)NC(=O)C(C(O)C7CNC(=N)N7C7OC(CO)C(O)C(O)C7O)NC(=O)C(C(O)C7CNC(=N)N7)NC6=O)cc5)C(O)C4O)C(O)C(O)C3O2)ccc1[N+](=O)[O-] (stereo not shown)" test_system="Staphylococcus sp." value_reported=8
compound="CCCCOC(=O)CCC1OCC2OC(OC3C(CO)OC(Oc4ccc(CC5NC(=O)C(C(C)c6ccccc6)NC(=O)CNC(=O)C(CO)NC(=O)C(C(O)C6CNC(=N)N6C6OC(CO)C(O)C(O)C6O)NC(=O)C(C(O)C6CNC(=N)N6)NC5=O)cc4)C(O)C3O)C(O)C(O)C2O1 (stereo not shown)" test_system="Staphylococcus sp." value_reported=1
compound="CC(C)=CCCC1OCC2OC(OC3C(CO)OC(Oc4ccc(CC5NC(=O)C(C(C)c6ccccc6)NC(=O)CNC(=O)C(CO)NC(=O)C(C(O)C6CNC(=N)N6C6OC(CO)C(O)C(O)C6O)NC(=O)C(C(O)C6CNC(=N)N6)NC5=O)cc4)C(O)C3O)C(O)C(O)C2O1 (stereo not shown)" test_system="Staphylococcus sp." value_reported=4
compound="CC(c1ccccc1)C1NC(=O)CNC(=O)C(CO)NC(=O)C(C(O)C2CNC(=N)N2C2OC(CO)C(O)C(O)C2O)NC(=O)C(C(O)C2CNC(=N)N2)NC(=O)C(Cc2ccc(OC3OC(CO)C(OC4OC(CO)C(O)C5OC(c6ccccc6)OC45)C(O)C3O)cc2)NC1=O (single isomer, unassigned) [Example 104a]" test_system="Staphylococcus sp." value_reported=16

* * *

# System: Staphylococcus sp.
# Experimental protocol: In vitro antibacterial evaluation: minimum inhibitory concentration (MIC), broth dilution method
# Type: cell-based
# Study conditions: broth dilution, 18 hours at 35° C.
Items are presented alongside their recorded MIC Coagulase Negative Staphylococcus (GC 4548).
Measured quantity: MIC Coagulase Negative Staphylococcus (GC 4548) (µg/mL)

compound="CC(c1ccccc1)C1NC(=O)CNC(=O)C(CO)NC(=O)C(C(O)C2CN(Cc3ccccc3)C(=NCc3ccccc3)N2C2OC(CO)C(O)C(O)C2O)NC(=O)C(C(O)C2CN(Cc3ccccc3)C(=NCc3ccccc3)N2Cc2ccccc2)NC(=O)C(Cc2ccc(OC3OC(CO)C(OC4OC5COC6(OC5C(O)C4O)C4CC5CC(C4)CC6C5)C(O)C3O)cc2)NC1=O (stereo not drawn) [Example 79]" reading_qualifier== value_reported=4
compound="CC(c1ccccc1)C1NC(=O)CNC(=O)C(CO)NC(=O)C(C(O)C2CNC(=N)N2C2OC(CO)C(O)C(O)C2O)NC(=O)C(C(O)C2CNC(=N)N2)NC(=O)C(Cc2ccc3oc(-c4ccoc4)nc3c2)NC1=O (stereo not drawn) [Example 38]" reading_qualifier== value_reported=32
compound="CN=C1N(C)CC(C(O)C2NC(=O)C(Cc3ccc(OC4OC(CO)C(OC5OC6COC7(OC6C(O)C5O)C5CC6CC(C5)CC7C6)C(O)C4O)cc3)NC(=O)C(C(C)c3ccccc3)NC(=O)CNC(=O)C(CO)NC(=O)C(C(O)C3CN(C)C(=NC)N3C3OC(CO)C(O)C(O)C3O)NC2=O)N1C (stereo not drawn) [Example 81]" reading_qualifier=> value_reported=128

* * *

Items are presented alongside their recorded MIC Staphylococcus aureus-SMITH (GC 4543).
# System: Staphylococcus sp.
# Experimental protocol: In vitro antibacterial evaluation: minimum inhibitory concentration (MIC), broth dilution method
# Format: cell-based
# Study conditions: strain GC 4543; broth dilution, 18 hours at 35° C.
# Description: […]
Measured quantity: MIC Staphylococcus aureus-SMITH (GC 4543) (µg/mL)

compound="CC(c1ccccc1)C1NC(=O)CNC(=O)C(CO)NC(=O)C(C(O)C2CNC(=N)N2C2OC(CO)C(O)C(O)C2O)NC(=O)C(C(O)C2CNC(=N)N2)NC(=O)C(Cc2ccc(OC3OC(CO)C(OC4OC(CO)C(O)C5OC(c6ccc(-c7ccsc7)cc6)OC45)C(O)C3O)cc2)NC1=O (centres unmarked) [Example 164a]" test_system="Staphylococcus sp." value_reported=8
compound="CC(c1ccccc1)C1NC(=O)CNC(=O)C(CO)NC(=O)C(C(O)C2CNC(=N)N2C2OC(CO)C(O)C(O)C2O)NC(=O)C(C(O)C2CNC(=N)N2)NC(=O)C(Cc2ccc(OC3OC(CO)C(OC4OC5COC(c6cccc(O)c6)OC5C(O)C4O)C(O)C3O)cc2)NC1=O (centres unmarked) [Example 136]" test_system="Staphylococcus sp." value_reported=16
compound="CCOc1cc(C2OCC3OC(OC4C(CO)OC(Oc5ccc(CC6NC(=O)C(C(C)c7ccccc7)NC(=O)CNC(=O)C(CO)NC(=O)C(C(O)C7CNC(=N)N7C7OC(CO)C(O)C(O)C7O)NC(=O)C(C(O)C7CNC(=N)N7)NC6=O)cc5)C(O)C4O)C(O)C(O)C3O2)ccc1[N+](=O)[O-] (centres unmarked) [Example 167]" test_system="Staphylococcus sp." value_reported=16
compound="COc1ccc(CC2OCC3OC(OC4C(CO)OC(Oc5ccc(CC6NC(=O)C(C(C)c7ccccc7)NC(=O)CNC(=O)C(CO)NC(=O)C(C(O)C7CNC(=N)N7C7OC(CO)C(O)C(O)C7O)NC(=O)C(C(O)C7CNC(=N)N7)NC6=O)cc5)C(O)C4O)C(O)C(O)C3O2)cc1 (centres unmarked) [Example 103]" test_system="Staphylococcus sp." value_reported=1
compound="Cc1cccc(C2OCC3OC(OC4C(CO)OC(Oc5ccc(CC6NC(=O)C(C(C)c7ccccc7)NC(=O)CNC(=O)C(CO)NC(=O)C(C(O)C7CNC(=N)N7C7OC(CO)C(O)C(O)C7O)NC(=O)C(C(O)C7CNC(=N)N7)NC6=O)cc5)C(O)C4O)C(O)C(O)C3O2)c1 (centres unmarked) [Example 135]" test_system="Staphylococcus sp." value_reported=1
compound="CCC(CC)C1OCC2OC(OC3C(CO)OC(Oc4ccc(CC5NC(=O)C(C(C)c6ccccc6)NC(=O)CNC(=O)C(CO)NC(=O)C(C(O)C6CNC(=N)N6C6OC(CO)C(O)C(O)C6O)NC(=O)C(C(O)C6CNC(=N)N6)NC5=O)cc4)C(O)C3O)C(O)C(O)C2O1 (centres unmarked) [Example 116]" test_system="Staphylococcus sp." value_reported=1
compound="CC(c1ccccc1)C1NC(=O)CNC(=O)C(CO)NC(=O)C(C(O)C2CNC(=N)N2C2OC(CO)C(O)C(O)C2O)NC(=O)C(C(O)C2CNC(=N)N2)NC(=O)C(Cc2ccc(OC3OC(CO)C(OC4OC5COC(c6ccc(S(C)(=O)=O)cc6)OC5C(O)C4O)C(O)C3O)cc2)NC1=O (centres unmarked) [Example 157]" test_system="Staphylococcus sp." value_reported=16
compound="N=C1NCC(C(O)C2NC(=O)C(Cc3ccc(OC4OC(CO)C(OC5OC6COC7(OC6C6OC8(OC56)C5CC6CC(C5)CC8C6)C5CC6CC(C5)CC7C6)C(O)C4O)cc3)NC(=O)C(CC3CCCCC3)NC(=O)CNC(=O)C(CO)NC(=O)C(C(O)C3CNC(=N)N3C3OC(CO)C(O)C(O)C3O)NC2=O)N1 (centres unmarked) [Example 106b]" test_system="Staphylococcus sp." value_reported=8
compound="CC(c1ccccc1)C1NC(=O)CNC(=O)C(CO)NC(=O)C(C(O)C2CNC(=N)N2C2OC(CO)C(O)C(O)C2O)NC(=O)C(C(O)C2CNC(=N)N2)NC(=O)C(Cc2ccc(OC3OC(CO)C(OC4OC5COC(c6cccc(-c7ccccc7)c6)OC5C(O)C4O)C(O)C3O)cc2)NC1=O (centres unmarked) [Example 154]" test_system="Staphylococcus sp." value_reported=1
compound="CC(c1ccccc1)C1NC(=O)CNC(=O)C(CO)NC(=O)C(C(O)C2CNC(=N)N2C2OC(CO)C(O)C(O)C2O)NC(=O)C(C(O)C2CNC(=N)N2)NC(=O)C(Cc2ccc(OC3OC(CO)C(OC4OC(CO)C(O)C5OC(CC67CC8CC(CC(C8)C6)C7)OC45)C(O)C3O)cc2)NC1=O (centres unmarked) [Example 128]" test_system="Staphylococcus sp." value_reported=2
compound="CC(C)=CCCC1OCC2OC(OC3C(CO)OC(Oc4ccc(CC5NC(=O)C(C(C)c6ccccc6)NC(=O)CNC(=O)C(CO)NC(=O)C(C(O)C6CNC(=N)N6C6OC(CO)C(O)C(O)C6O)NC(=O)C(C(O)C6CNC(=N)N6)NC5=O)cc4)C(O)C3O)C(O)C(O)C2O1 (centres unmarked) [Example 123]" test_system="Staphylococcus sp." value_reported=4
compound="COc1cccc(C2OC3C(OC4C(CO)OC(Oc5ccc(CC6NC(=O)C(C(C)c7ccccc7)NC(=O)CNC(=O)C(CO)NC(=O)C(C(O)C7CNC(=N)N7C7OC(CO)C(O)C(O)C7O)NC(=O)C(C(O)C7CNC(=N)N7)NC6=O)cc5)C(O)C4O)OC(CO)C(O)C3O2)c1 (single isomer, unassigned) [Example 137b]" test_system="Staphylococcus sp." value_reported=8
compound="CC(c1ccccc1)C1NC(=O)CNC(=O)C(CO)NC(=O)C(C(O)C2CNC(=N)N2C2OC(CO)C(O)C(O)C2O)NC(=O)C(C(O)C2CNC(=N)N2)NC(=O)C(Cc2ccc(OC3OC(CO)C(OC4OC5COC(C6CCCC6)OC5C(O)C4O)C(O)C3O)cc2)NC1=O (centres unmarked) [Example 117]" test_system="Staphylococcus sp." value_reported=1
